test_target: Muscarinic acetylcholine receptor
protocol_summary: Receptor binding affinity (Ki) for Muscarinic acetylcholine receptor (urinary bladder) was determined by competition radioligand -[3H]- QNB binding assay
Type: protein assay, Cavia porcellus
measured_metric: Ki (nM)
One number for each entry, in nM.

Example entries and their recorded answers appear below.
Brc1ccc2oc(C3=CN4CCC3CC4)cc2c1    156
Brc1cccc2cc(C3=CN4CCC3CC4)oc12    97
O=Cc1cccc2cc(C3=CN4CCC3CC4)oc12    1700
C1=C(c2cc3cc(-c4ccccc4)ccc3o2)C2CCN1CC2    332
C1=C(c2cc3cccc(-c4ccccc4)c3o2)C2CCN1CC2    330

// next item, Ki requested
Recorded Ki for `O=Cc1cc(I)cc2cc(C3=CN4CCC3CC4)oc12` , please?
600

* * *

test_target: Muscarinic acetylcholine receptor
protocol_summary: Receptor binding affinity (Ki) against Muscarinic acetylcholine receptor (cerebral cortex) was determined by competition radioligand -[3H]- QNB binding assay
Format: tissue-based, Cavia porcellus
Record form. Attribute: log10(Ki). Fill in for each entry.
Give log10 of Ki, with Ki taken in µM.

The cases that follow already have their log10(Ki) on record.
COc1cc(C=O)cc2cc(C3=CN4CCC3CC4)oc12    0.07
C1=C(c2cc3cccc(-c4ccccc4)c3o2)C2CCN1CC2    -0.87
O=Cc1cccc2cc(C3=CN4CCC3CC4)oc12    -0.19
Brc1c(C2=CN3CCC2CC3)oc2ccccc12    -1.40
N#Cc1ccc2oc(C3=CN4CCC3CC4)cc2c1    -1.22

Look up log10(Ki): `O=Cc1cc(I)cc2cc(C3=CN4CCC3CC4)oc12`
-0.45

* * *

test_target: Muscarinic acetylcholine receptor
protocol_summary: Receptor binding affinity against Muscarinic acetylcholine receptor from guinea pig parotid gland was determined using [3H]- QNB as radioligand
Type: protein assay, Cavia porcellus
measured_metric: Ki (µM)
Numbers only, in µM.

Worked examples follow.
COc1cc(CO)cc2cc(C3=CN4CCC3CC4)oc12    20
OCc1ccc2oc(C3=CN4CCC3CC4)cc2c1    10.7

Query: Ki; subject: `OCc1cc(I)cc2cc(C3=CN4CCC3CC4)oc12`
2.7

* * *

test_target: Muscarinic acetylcholine receptor
protocol_summary: Receptor binding affinity (Ki) for Muscarinic acetylcholine receptor (heart)was determined by competition radioligand -[3H]- QNB binding assay
Format: protein assay, Cavia porcellus
What Ki was measured for each of the following?

Look over these answered cases.
O=Cc1ccc2oc(C3=CN4CCC3CC4)cc2c1    920 nM
O=Cc1cc(I)c2oc(C3=CN4CCC3CC4)cc2c1    517 nM
O=Cc1cccc2cc(C3=CN4CCC3CC4)oc12    1612 nM
Cc1ccc2oc(C3=CN4CCC3CC4)cc2c1    238 nM
O=Cc1cc(I)cc2cc(C3=CN4CCC3CC4)oc12    314 nM

Need Ki for each of these molecules.
1. N#Cc1ccc2oc(C3=CN4CCC3CC4)cc2c1
2. C1=C(c2cc3cccc(-c4ccccc4)c3o2)C2CCN1CC2
3. C1=C(c2oc3ccccc3c2-c2ccccc2)C2CCN1CC2
4. Brc1ccc2oc(C3=CN4CCC3CC4)cc2c1
5. C1=C(c2cc3cc(-c4ccccc4)ccc3o2)C2CCN1CC2

1: 160 nM; 2: 260 nM; 3: 72 nM; 4: 86 nM; 5: 376 nM

Okay, here is my list. What is Ki for each of these?
1. COc1cc(C=O)cc2cc(C3=CN4CCC3CC4)oc12
2. Brc1cccc2cc(C3=CN4CCC3CC4)oc12
3. Cc1cccc2cc(C3=CN4CCC3CC4)oc12
4. Brc1c(C2=CN3CCC2CC3)oc2ccccc12

2040 nM
44 nM
76 nM
106 nM

Entry `Cc1c(C2=CN3CCC2CC3)oc2ccccc12` : reported Ki = ?
77.8 nM

Value source: ChEMBL document CHEMBL1129078
